assay: activity coefficient (dimensionless); of the first substance listed, at infinite dilution; xn = mol fraction of the nth substance listed; details: 323.15 K; 101 kPa; Liquid; Chromatography; x1 = 0
RESULT_TYPE: activity coefficient

- CCC[N+](=O)[O-] [1-nitropropane] + C=CC[n+]1ccn(CCCCCCCCCCCC)c1.[Br-]: 1.12
- CCOCC [diethyl ether] + C=CC[n+]1ccn(CCCCCCCCCCCC)c1.[Br-]: 2.95
- ClC(Cl)(Cl)Cl [tetrachloromethane] + CCCCCCCCCC[n+]1ccn(CCCB(O)O)c1.[Br-]: 0.79
- Cc1ccccc1C [1,2-dimethylbenzene] + C[n+]1ccn(CCCB(O)O)c1.[Br-]: 44
- C#CCCCC [1-hexyne] + C=CCn1cc[n+](C)c1.[Br-]: 8.27
- Cc1cccc(C)c1 [1,3-dimethylbenzene] + C=CCn1cc[n+](C)c1.[Br-]: 11.1
- c1ccsc1 [thiophene] + C=CC[n+]1ccn(CCCCCCCCCCCC)c1.[Br-]: 0.77
- CCCCCCC [heptane] + CCCCCCCC[n+]1ccn(CCCB(O)O)c1.[Br-]: 20.2
- C#CCCCC [1-hexyne] + C=CC[n+]1ccn(CCCCCCCCCCCC)c1.[Br-]: 1.56
